system: Wild type; test: S. aureus survival, RN4220 and DeltatarO strains – OD600, teichoic acid synthesis inhibitors, primary screen (AID 463173); conditions: S. aureus RN4220 wild type/DeltatarO growth, OD600, 18 h, screened at 18.75 µg/mL (by protocol)
Hit rate of the full screen: of about 52,000 compounds, about 1,700 (3.3%) were called active. Rule as the data show it: active = survival mostly below about 52% (no sharp cut-off); inactive = mostly above about 56%. The list comes from a sample in which actives are over-represented; it also holds close analogues and randomly drawn compounds.
Possible outcomes: active, inactive

Smiles text	Group label
O=C(C1CCN(c2ncnc3c2nc2n3CCCCC2)CC1)N1CCN(c2cccc(Cl)c2)CC1	inactive
CCCN(C(=O)CCc1nc(-c2ccccc2F)no1)c1ccc(CC)cc1	active
COc1ccc(N2CCN(c3ncnc4c3nc3n4CCCCC3)CC2)cc1	inactive
c1ccc(N2CCN(c3ncnc4c3nc3n4CCCCC3)CC2)cc1	inactive
Clc1cccc(N2CCN(c3ncnc4c3nc3n4CCCCC3)CC2)c1	active
COc1cccc(N2CCN(c3ncnc4c3nc3n4CCCCC3)CC2)c1	active
